Reported pKd values for a set of binders
Biological target: T1, human IL-11 (AAH12506.1, Pro22-Leu199) (human, UniProt P20809 22-199)
T1 construct: The range Pro22-Leu199 counts on AAH12506.1; The Octet runs say only 'human IL-11'; also called hIL-11
T1 chain: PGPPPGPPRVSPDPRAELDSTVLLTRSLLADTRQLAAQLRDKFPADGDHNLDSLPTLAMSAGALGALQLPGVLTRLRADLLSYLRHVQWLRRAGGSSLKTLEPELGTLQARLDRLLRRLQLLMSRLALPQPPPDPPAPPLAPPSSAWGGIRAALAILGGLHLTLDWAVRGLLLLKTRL
Test: BLI (Octet), antibody captured, human IL-11 in solution
pKd: −log10 of the molar value.
assay_readout: pKd

hz8C8-VHm1-m5 + hz8C8-VLm7-m2 (antibody, human IgG1, kappa, V domains shown, human IgG1 constant regions) VH: EVQLVESGGGLVQPGGSLRLSCAASGFTFSSFGMHWVRQAPGKGLEYVAYITPGSNTIYYADTVKGRFTISRDNAKNSLYLQMNSLRAEDTAVYYCAREYYSYDEGFAYWGQGTLVTVSS VL: EIVLTQSPATLSLSPGERATLSCSVSDLIPSQYLHWYQQKPGQAPRLLIYDASNLASGIPARFSGSGSGTDFTLTISSLEPEDFAVYYCQQGVDVPFTFGQGTKLEIKR    10.23
hz8C8-VHm1-m10 + hz8C8-VLm7-m2 (antibody, human IgG1, kappa, V domains shown, human IgG1 constant regions) VH: EVQLVESGGGLVQPGGSLRLSCAASGFTFSSFGMHWVRQAPGKGLEWVAYITPGSNTIYYADTVKGRFTISRDNAKNSLYLQMNSLRAEDTAVYYCAREYYSSDEGFAYWGQGTLVTVSS VL: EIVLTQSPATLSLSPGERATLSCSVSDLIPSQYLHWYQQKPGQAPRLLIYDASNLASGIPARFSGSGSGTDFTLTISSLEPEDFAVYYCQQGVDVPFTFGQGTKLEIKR    8.86
hz8C8-VHm1-m7 + hz8C8-VLm7-m2 (antibody, human IgG1, kappa, V domains shown, human IgG1 constant regions) VH: EVQLVESGGGLVQPGGSLRLSCAASGFTFSSFGMHWVRQAPGKGLEWVSVITPGSNTIYYADTVKGRFTISRDNAKNSLYLQMNSLRAEDTAVYYCAREYYSYDEGFAYWGQGTLVTVSS VL: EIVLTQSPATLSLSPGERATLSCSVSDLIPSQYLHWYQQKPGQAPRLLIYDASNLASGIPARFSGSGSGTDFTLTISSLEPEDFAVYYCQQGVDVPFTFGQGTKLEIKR    8.73
